B1: GA-binding protein alpha chain, residues 172 to 250; numbered along this chain, Q06546 (parent)
chain: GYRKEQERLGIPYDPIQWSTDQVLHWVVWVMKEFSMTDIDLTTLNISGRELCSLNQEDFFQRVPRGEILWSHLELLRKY

variants of: B1; experiment: abundance fitness (aPCA) (normalised: wild type 0, dead -1); higher = more abundant; growth selection in yeast, the domain comes from the species named; conditions: Homo sapiens
metric: abundance fitness
Just the number, please.

Note to self: abundance fitness recorded for `L75Y` was 0.01

Noted for `M36R` : its abundance fitness reads -0.029

Per the records, this variant ( `G10N` ) has abundance fitness equal to 0.028

The measured abundance fitness associated with `F59T` reads -1.02

Noted for `S47E` : its abundance fitness reads -0.061

Given item `V30S` , the value recorded as its abundance fitness is -0.076

// recorded abundance fitness for `E33Q` : -0.123

Sure, the documented abundance fitness for `N55G` is -0.02

For record `D40R` the listed abundance fitness is -0.292

Record summary for `N55H` : reported abundance fitness = -0.124

Measured abundance fitness of `D40E` : -0.112

Record `L76V` , field abundance fitness: -0.182

// abundance fitness lookup, variant = `R8N` , result: -0.191

Lookup result for `T43K` ; measured abundance fitness: 0.102

`G10P` yielded abundance fitness of -0.978

Entry `I46C` ; abundance fitness = -0.17

Summary for this variant, `M36W` : abundance fitness is -0.118

Entry under test: `T42S` . Its abundance fitness was -0.011

Just so you know, measured abundance fitness for `T42C` came out at -0.051

Entry under test: `G66S` . Its abundance fitness was -0.199

Entry under test: `V28I` . Its abundance fitness was -0.017

Record summary for `G48V` : reported abundance fitness = -0.884

Entry `W29A` ; abundance fitness = -0.632

Per the record, `T20W` has abundance fitness of -0.516

Measured abundance fitness of `Q6N` : -0.844

`Q61T` has a reported abundance fitness of 0.014

# abundance fitness of `L9T` = -0.11

Lab book: abundance fitness of `L9E` noted as -0.117

Per the record, `L44K` has abundance fitness of -0.862

abundance fitness recorded for this variant, `R65M` , is -0.127

For record `F60M` the listed abundance fitness is 0.121

abundance fitness reading for `S19Q` : -0.225

Noted for `K4Y` : its abundance fitness reads -0.1

The reported abundance fitness of the variant `V27M` was -0.106

The reported abundance fitness of the variant `S19C` was -0.487

What the record says about `S35E` : abundance fitness is -0.035

The recorded abundance fitness for `V28P` is -0.921

Recorded result, `E7V` , abundance fitness: -0.172

// recorded abundance fitness for `I68T` : -0.065

Query `F34Y` yields abundance fitness of 0.015

Lab note: measured abundance fitness of `H25V` was -0.219

Lab note: measured abundance fitness of `T43I` was -0.202

abundance fitness recorded for this variant, `Q61G` , is -0.029

// abundance fitness value for `S47Q` : -0.276

Reported abundance fitness of `P15N` : -0.606

abundance fitness reading for `R49V` : -0.082
